Data provenance: PubChem BioAssay AID977607

Provide the reported max activation of each item.
Experiment: activators of glucose-dependent insulin secretion, dose response, cell-based, INS-1E, Gaussia luciferase, luminescence, cherry-pick, set 2 (AID 977607);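 note: 0% = median of the plate neutral control wells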
Conditions: INS-1E GLuc insulin secretion reporter, 2-3 h, stronger effect = higher value; at 35 µM, 100% = signal doubled over neutral wells unless noted
Out of some 1,500 compounds screened, about 460 (31%) were called active. Roughly 1% stayed inconclusive and do not appear here. These entries were drawn from the full list. Potency and affinity values are given separately.

Which value of max activation has been reported for CN(C)c1ncnc2sc(-c3ccccc3)cc12 in the records?
75.3% (inactive)

Moving on to the next compound: c1ccc(-c2nc(NCC3CC3)nc3ccsc23)cc1
-19.8% (inactive)
